Measured z-score of individual entries
Biological target: NADPH oxidase 2 (Homo sapiens) (UniProt P04839)
Sequence (P04839 whole entry, looked up): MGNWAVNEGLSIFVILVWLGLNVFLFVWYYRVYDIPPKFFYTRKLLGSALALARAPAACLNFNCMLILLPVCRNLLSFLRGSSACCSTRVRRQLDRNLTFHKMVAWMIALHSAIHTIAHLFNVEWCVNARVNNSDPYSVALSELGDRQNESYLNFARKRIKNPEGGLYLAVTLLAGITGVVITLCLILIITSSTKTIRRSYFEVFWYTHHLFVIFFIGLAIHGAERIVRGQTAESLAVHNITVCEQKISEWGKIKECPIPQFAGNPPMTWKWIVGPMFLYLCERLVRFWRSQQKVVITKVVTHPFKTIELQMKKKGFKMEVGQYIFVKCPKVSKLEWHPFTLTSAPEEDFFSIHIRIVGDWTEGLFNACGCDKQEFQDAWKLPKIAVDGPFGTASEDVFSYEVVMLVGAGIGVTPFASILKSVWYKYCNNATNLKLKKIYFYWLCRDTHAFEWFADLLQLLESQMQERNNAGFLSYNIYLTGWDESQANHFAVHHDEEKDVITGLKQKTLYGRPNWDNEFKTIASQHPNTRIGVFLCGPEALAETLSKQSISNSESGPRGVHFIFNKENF
Test: compounds shifting NOX2 Amplex Red fluorescence – cell-based, HEK293-NOX2, PMA-stimulated, NOX inhibitor project, primary screen (AID 1159); further: test concentration not given here
Conditions: 45 min, higher = more signal, called active from +8 up or from −8 down
Active and inactive are the calls of the source.
MEASURED METRIC: z-score

>  <COMPOUND>
O=C1[C@H]2C=C(I)[C@H](C[C@@H]2c2ccccc2)[C@@]12CO2

>  <SYSTEM NAME>
NADPH oxidase 2 (Homo sapiens) (UniProt P04839)

>  <MEASURED METRIC>
z-score

>  <OBSERVED RESULT>
-0.66 (inactive)

$$$$
>  <COMPOUND>
C=C1C(=O)C=C2CN(C(=O)c3ccccc3)[C@@](Cc3ccc(OC)cc3)(C(=O)OC)[C@@H]12

>  <SYSTEM NAME>
NADPH oxidase 2 (Homo sapiens) (UniProt P04839)

>  <MEASURED METRIC>
z-score

>  <OBSERVED RESULT>
0.427 (inactive)

$$$$
>  <COMPOUND>
COCCOC(=O)N1C(=O)[C@@]2(c3cc(C#CCC(C(=O)OC)C(=O)OC)ccc31)[C@H](C(N)=O)[C@H]1C(=O)O[C@H](c3ccccc3)[C@H](c3ccccc3)N1[C@@H]2c1ccc(O)cc1

>  <SYSTEM NAME>
NADPH oxidase 2 (Homo sapiens) (UniProt P04839)

>  <MEASURED METRIC>
z-score

>  <OBSERVED RESULT>
1.29 (inactive)

$$$$
>  <COMPOUND>
COCCCNC(=O)[C@@]1(CCS(=O)(=O)c2ccccc2)COC(c2ccc(OCCCO)cc2)=N1

>  <SYSTEM NAME>
NADPH oxidase 2 (Homo sapiens) (UniProt P04839)

>  <MEASURED METRIC>
z-score

>  <OBSERVED RESULT>
-0.556 (inactive)

$$$$
>  <COMPOUND>
CCCC#C[Si](O[C@H](CC)c1cn(Cc2ccccc2)nn1)(C(C)C)C(C)C

>  <SYSTEM NAME>
NADPH oxidase 2 (Homo sapiens) (UniProt P04839)

>  <MEASURED METRIC>
z-score

>  <OBSERVED RESULT>
0.442 (inactive)

$$$$
>  <COMPOUND>
CCOC(=O)C1=CC[C@@H](c2ccc(OC)cc2)N(S(=O)(=O)c2ccc(C)cc2)[C@H]1CC

>  <SYSTEM NAME>
NADPH oxidase 2 (Homo sapiens) (UniProt P04839)

>  <MEASURED METRIC>
z-score

>  <OBSERVED RESULT>
0.0165 (inactive)

$$$$
>  <COMPOUND>
C=CCOC(=O)[C@@H]1[C@H]2C(=O)O[C@H](c3ccccc3)[C@H](c3ccccc3)N2[C@H](c2ccc(OCCOC(=O)[C@H]3C[C@H]4C(=O)N[C@@H](CCCCN(C)C)C(=O)N4[C@H]3c3ccc(O)cc3)cc2)[C@@]12C(=O)Nc1ccc(I)cc12

>  <SYSTEM NAME>
NADPH oxidase 2 (Homo sapiens) (UniProt P04839)

>  <MEASURED METRIC>
z-score

>  <OBSERVED RESULT>
1.6 (inactive)

$$$$
>  <COMPOUND>
NC(=O)N1C(=O)C2C(C1=O)C1C=C(CCCO)C2C(C2CC2)N1Cc1sc2ccccc2c1Cl (stereo not given)

>  <SYSTEM NAME>
NADPH oxidase 2 (Homo sapiens) (UniProt P04839)

>  <MEASURED METRIC>
z-score

>  <OBSERVED RESULT>
2.74 (inactive)

$$$$
>  <COMPOUND>
COc1cc(CO)cc(I)c1O[C@H]1C=C(C(=O)NCCO)C[C@@H](NC2CCCCCC2)[C@@H]1O

>  <SYSTEM NAME>
NADPH oxidase 2 (Homo sapiens) (UniProt P04839)

>  <MEASURED METRIC>
z-score

>  <OBSERVED RESULT>
0.287 (inactive)

$$$$
>  <COMPOUND>
CC(=O)c1ccc(C(O)C2C=CC3C(=O)N(c4ccccc4)C(=O)C3N2Nc2ccc(C(C)C)cc2)cc1 (stereo not given)

>  <SYSTEM NAME>
NADPH oxidase 2 (Homo sapiens) (UniProt P04839)

>  <MEASURED METRIC>
z-score

>  <OBSERVED RESULT>
-1.6 (inactive)

$$$$
>  <COMPOUND>
CCOC(=O)C1=CCC(c2cc3ccccc3[nH]2)N(CCN2CC(C(=O)OCC)=CCC2c2cc3ccccc3[nH]2)C1 (stereo not given)

>  <SYSTEM NAME>
NADPH oxidase 2 (Homo sapiens) (UniProt P04839)

>  <MEASURED METRIC>
z-score

>  <OBSERVED RESULT>
-0.756 (inactive)

$$$$
>  <COMPOUND>
CC(C)(C)OC(=O)CC[C@]1(C(=O)NCC(O)CO)N=C(c2ccc(OCCCO)cc2)O[C@H]1c1ccccc1N=[N+]=[N-] (stereo not given in full)

>  <SYSTEM NAME>
NADPH oxidase 2 (Homo sapiens) (UniProt P04839)

>  <MEASURED METRIC>
z-score

>  <OBSERVED RESULT>
-3.04 (inactive)

$$$$
>  <COMPOUND>
C=C(CCCC)C(=O)CC[C@@H](OC(=O)c1ccccc1-c1ccccc1C(=O)O)c1ccccc1OCCO

>  <SYSTEM NAME>
NADPH oxidase 2 (Homo sapiens) (UniProt P04839)

>  <MEASURED METRIC>
z-score

>  <OBSERVED RESULT>
1.78 (inactive)

$$$$
>  <COMPOUND>
Cc1ccc(F)cc1S(=O)(=O)N[C@H]1CCN(Cc2ccc(OC(C)C)cc2)C1

>  <SYSTEM NAME>
NADPH oxidase 2 (Homo sapiens) (UniProt P04839)

>  <MEASURED METRIC>
z-score

>  <OBSERVED RESULT>
-1.11 (inactive)

$$$$
>  <COMPOUND>
CC(C)(C)N1CC=CC23O[C@@H]4/C=C\CCCOC(=O)C4[C@H]2C(=O)N(CCCCCO)[C@@H]3C1=O (stereo not given in full)

>  <SYSTEM NAME>
NADPH oxidase 2 (Homo sapiens) (UniProt P04839)

>  <MEASURED METRIC>
z-score

>  <OBSERVED RESULT>
1.16 (inactive)

$$$$

====

Biological target: Torsin-1A (Homo sapiens)
Experiment: TOR1A wild-type binding on microarray – cell lysate, small-molecule microarray, lysate, 635/667 nm, primary screen (AID 1149)
Details: COS7 hTOR1A-WT lysate, 635 nm fluorescence, higher = more signal
MEASURED METRIC: composite z-score

>  <COMPOUND>
CCOC(=O)C[C@H]1[C@H](OC(=O)Cc2ccc3c(c2)OCO3)[C@@H](NC(=O)Cc2ccc(OC)cc2)c2cc(OCCCO)ccc2N1C(=O)Cc1ccc(OC)cc1

>  <SYSTEM NAME>
Torsin-1A (Homo sapiens)

>  <OBSERVED RESULT>
0.142

$$$$
>  <COMPOUND>
COCCOC(=O)N1C(=O)[C@@]2(c3cc(C#Cc4ccc(OC)cc4)ccc31)[C@H](c1ccc(OCCO)cc1)N1[C@H](c3ccccc3)[C@H](c3ccccc3)OC(=O)[C@H]1[C@@H]2C(=O)NC[C@H](O)c1ccccc1

>  <SYSTEM NAME>
Torsin-1A (Homo sapiens)

>  <OBSERVED RESULT>
0.677

$$$$
>  <COMPOUND>
CC(C)c1nc2cc(Br)ccc2c(=O)o1

>  <SYSTEM NAME>
Torsin-1A (Homo sapiens)

>  <OBSERVED RESULT>
0.0358

$$$$
>  <COMPOUND>
C=C(COC)/C(=C/C[C@@H](OC(C)=O)c1ccccc1OCCO)c1cnc2ccccc2c1

>  <SYSTEM NAME>
Torsin-1A (Homo sapiens)

>  <OBSERVED RESULT>
2.53

$$$$
>  <COMPOUND>
O=C1N(CCS(=O)(=O)c2ccccc2)c2ccccc2C[C@]12N=C(c1ccc(OCCCO)cc1)O[C@@H]2c1ccccc1

>  <SYSTEM NAME>
Torsin-1A (Homo sapiens)

>  <OBSERVED RESULT>
0.903

$$$$
>  <COMPOUND>
C=CCNC(=O)[C@H]1[C@@H]2C(=O)O[C@@H](c3ccccc3)[C@@H](c3ccccc3)N2[C@@H](c2ccc(OCCO)cc2)[C@]12C(=O)Nc1ccc(C#CC3(O)CCCCCC3)cc12

>  <SYSTEM NAME>
Torsin-1A (Homo sapiens)

>  <OBSERVED RESULT>
0.406

$$$$
>  <COMPOUND>
COCCOC(=O)N1C(=O)[C@@]2(c3cc(C#CCCO)ccc31)[C@H](C(N)=O)[C@H]1C(=O)O[C@H](c3ccccc3)[C@H](c3ccccc3)N1[C@@H]2c1ccccc1OCCO

>  <SYSTEM NAME>
Torsin-1A (Homo sapiens)

>  <OBSERVED RESULT>
0.69

$$$$
>  <COMPOUND>
C=CCC(OC(C)=O)[C@@H]1[C@@H](N(Cc2ccc(-c3cccc(C(F)(F)F)c3)o2)C(=O)Cc2ccc(F)cc2)c2cc(OCCCO)ccc2N1C(=O)Cc1ccc2ccccc2c1 (stereo partly drawn)

>  <SYSTEM NAME>
Torsin-1A (Homo sapiens)

>  <OBSERVED RESULT>
-0.761

$$$$
>  <COMPOUND>
CCOC(=O)C[C@H]1[C@H](OC(=O)c2ccccc2-c2ccccc2)[C@@H](NC(=O)c2ccc3ccccc3c2)c2cc(OCCCO)ccc2N1C(=O)Cc1ccc(OC)cc1

>  <SYSTEM NAME>
Torsin-1A (Homo sapiens)

>  <OBSERVED RESULT>
0.0216

$$$$
>  <COMPOUND>
COCCOC(=O)N1C(=O)[C@@]2(c3cc(C#CCC(C(=O)OC)C(=O)OC)ccc31)[C@H](C(N)=O)[C@H]1C(=O)O[C@H](c3ccccc3)[C@H](c3ccccc3)N1[C@@H]2c1ccc(O)cc1

>  <SYSTEM NAME>
Torsin-1A (Homo sapiens)

>  <OBSERVED RESULT>
0.551

$$$$
>  <COMPOUND>
O=C(N1CCOCC1)[C@@]1(Cc2ccccc2)COC(c2ccc(OCCCO)cc2)=N1

>  <SYSTEM NAME>
Torsin-1A (Homo sapiens)

>  <OBSERVED RESULT>
0.315

$$$$
>  <COMPOUND>
COc1cc(C(O)C2C=CC3C(=O)N(c4ccccc4)C(=O)C3N2Nc2ccccc2F)cc(OC)c1OC (stereo not drawn)

>  <SYSTEM NAME>
Torsin-1A (Homo sapiens)

>  <OBSERVED RESULT>
0.0422

$$$$
>  <COMPOUND>
COc1cc(CO)cc(I)c1O[C@H]1C=C(C(=O)NCCO)C[C@@H](NC2CCCCCC2)[C@@H]1O

>  <SYSTEM NAME>
Torsin-1A (Homo sapiens)

>  <OBSERVED RESULT>
0.0076

$$$$
